Record form. Attribute: TGI. Fill in for each entry.
Test system: MDA-MB-468 breast
experimental details: NCI tumour cell line growth inhibition, 48 h
Answers are plain numbers, in µM.

| smiles record | TGI [µM] |
| --- | --- |
| Fc1ccc(-c2ncn(C3CCNCC3)c2-c2ccnc(Oc3ccc(F)c(F)c3)n2)cc1 | 5.86 |
| CCCCCCCCCc1cc[n+](CC(=O)c2ccc([N+](=O)[O-])cc2)cc1 | 1.75 |
| CS(=O)(=O)CCNCc1ccc(-c2ccc3ncnc(Nc4ccc(OCc5cccc(F)c5)c(C(F)(F)F)c4)c3c2)o1 | 6.09 |
| CCC(=C(c1ccc(OCCN(C)C)cc1)c1ccc(OCCN(C)C)cc1)c1ccc(Cl)cc1 | 6.7 |

stdin: Name the reported TGI value associated with the molecule N#CSc1c[nH]c2ccc(/C=C/C(=O)/C=C(/C=C/c3ccc4[nH]cc(SC#N)c4c3)OB(F)F)cc12
stdout: 4.09

---

Tested on: MDA-MB-468 breast
experimental details: NCI tumour cell line growth inhibition, 48 h
reported endpoint: TGI (µM)
One number for each entry, in µM.

| smiles record | unit of measure | TGI |
| --- | --- | --- |
| Cc1ccc(C(=O)C[n+]2cccc3c4ccccc4ccc32)cc1 | µM | 7.72 |
| CC(=O)Nc1ccc(-c2cn(-c3cccc(C(=O)Nc4ccc(Cl)c(C(F)(F)F)c4)c3)nn2)cn1 | µM | 3.02 |

Could you now consider this next molecule?
stdin: Name the reported TGI value associated with the molecule Cc1cc(Nc2c3ccccc3nc3ccccc23)ccc1NS(C)(=O)=O
stdout: 8.81

---

Test system: MDA-MB-468 breast
experimental details: NCI tumour cell line growth inhibition, 48 h
reported endpoint: GI50

| compound | GI50 |
| --- | --- |
| N#CSc1c[nH]c2ccc(/C=C/C(=O)/C=C(/C=C/c3ccc4[nH]cc(SC#N)c4c3)OB(F)F)cc12 | 0.91 µM |
| CCC(=C(c1ccc(OCCN(C)C)cc1)c1ccc(OCCN(C)C)cc1)c1ccc(Cl)cc1 | 2.95 µM |
| COc1cc(C2CC(c3ccc(Cl)cc3)=Nc3c(N)nc(N)nc3N2)ccc1Oc1nc(Nc2ccc(F)cc2)nc(N(C)C)n1 (stereo not drawn) | 17.8 µM |
| COC(=O)Nc1nc2ccc(C(=O)c3ccc(N(C)C4COC4)cc3)cc2[nH]1 | 0.224 µM |
| CCN(CC)c1ccc2c(c1)Oc1nc(N)c(C#N)c(N)c1C2Sc1ccc(OC)cc1 (stereo not drawn) | 1.85 µM |
| CN1CCN(c2cc(C(=O)Nc3cc4cc(-c5cnn(C)c5)ccc4cn3)ccn2)CC1 | 0.0348 µM |
| Cc1cccc(/C=C/C(=O)Nc2ncc(Cc3cccc(C)c3)s2)c1 | 3.77 µM |
| CCCCCCCCCCCCCCCC[N+](C)(CCO)Cc1cnc[nH]1 (stereo not drawn) | 0.396 µM |
| O=C(/C=C/C=C/c1c(C2CC2)nc2ccccc2c1-c1ccc(F)cc1)c1cccs1 | 2.75 µM |
| O=c1c(O)cccc2cc(O)c(O)c(O)c12 | 47.6 µM |

// for each compound in input: emit GI50
1. CCCCCCCCCc1cc[n+](CC(=O)c2ccc([N+](=O)[O-])cc2)cc1
2. CS(=O)(=O)CCNCc1ccc(-c2ccc3ncnc(Nc4ccc(OCc5cccc(F)c5)c(C(F)(F)F)c4)c3c2)o1

stdout:
["0.446 µM", "1.42 µM"]

stdin: Name the reported GI50 value associated with the compound Cc1nccc2c3ccc(OCc4cn(-c5ccc(Cl)cc5)nn4)cc3n(CCCc3ccccc3)c12
stdout: 6.07 µM
